Tested on: HIV-1 RF virus in CEM-SS cells
Assay: HIV-1 cell protection assay (XTT dye reduction)
Format: cell-based
Conditions: Human immunodeficiency virus 1, 144 h; RF strain of HIV-1, CEM-SS cells, XTT read-out after six days; read-out: EC50
Readout: pEC50
Kindly note that pEC50 refers to -log10 of the concentration in mol/L and answer with the value alone.

Here are 3 compounds together with their reported answers.
Structure as smiles: O=C1c2ncc3c(c(Br)cn3Cc3ccc(F)cc3)c2CCN1O
Readout: pEC50
Observed value: 9.49
//
Structure as smiles: N#Cc1ccccc1Cn1ccc2c3c(ncc21)C(=O)N(O)CC3
Readout: pEC50
Observed value: 7.49
//
Structure as smiles: CN1CCN(CCc2cn(Cc3ccc(F)cc3)c3cnc4c(c23)CCN(O)C4=O)CC1=O
Readout: pEC50
Observed value: 7.15

Now for the compound whose pEC50 we want.
INPUT: In one line, give reported pEC50 of the entry O=C1c2ncc3c(c(CCNCC(F)(F)F)cn3Cc3ccc(F)cc3)c2CCN1O .
OUTPUT: 8.70

###

System: HIV-1 RF virus in CEM-SS cells
Assay: HIV-1 cell protection assay (XTT dye reduction)
Type: cell-based
Conditions: Human immunodeficiency virus 1, 144 h; RF strain of HIV-1, CEM-SS cells, XTT read-out after six days; read-out: EC50
// reported EC50 per item

Below, each entry is followed by its recorded EC50 result.
Molecule: O=C1c2ncc3c(c(CCN4CCOCC4)cn3Cc3ccc(F)cc3)c2CCN1O [Example 111]
Measured target: HIV-1 RF virus in CEM-SS cells
EC50: 4 nM
//
Molecule: CC(=O)CCCOCc1cn(Cc2ccc(F)cc2)c2cnc3c(c12)CCN(O)C3=O [Example 63]
Measured target: HIV-1 RF virus in CEM-SS cells
EC50: 3 nM
//
Molecule: C[C@H](CO)NCc1cn(Cc2ccc(F)cc2)c2cnc3c(c12)CCN(O)C3=O [Example 33]
Measured target: HIV-1 RF virus in CEM-SS cells
EC50: 13 nM

Let's switch to this molecule now.
INPUT: For HIV-1 RF virus in CEM-SS cells, give EC50 of the listed molecule: CCOCCOCc1cn(Cc2ccc(F)cc2)c2cnc3c(c12)CCN(O)C3=O [Example 31]
OUTPUT: 5 nM

###

Test system: HIV-1 RF virus in CEM-SS cells
Assay: HIV-1 cell protection assay (XTT dye reduction)
Format: cell-based
Settings: Human immunodeficiency virus 1, 144 h; RF strain of HIV-1, CEM-SS cells, XTT read-out after six days; read-out: EC50
pEC50: −log10 of the molar value.
// -1 strictly below 8 in pEC50; 1 otherwise

Previously resolved entries follow.
Compound: CCCN(CCO)Cc1cn(Cc2ccc(F)cc2)c2cnc3c(=O)n(O)c(C)cc3c12 [Example 97]
Class assignment: 1

Compound: O=C1c2ncc3c(c(CCNC4CCOCC4)cn3Cc3ccc(F)cc3)c2CCN1O [Example 112]
Class assignment: -1

Pending compound:
INPUT: Textbook exercise: given the entry O=C1c2ncc3c(c(CCO)cn3Cc3ccc(F)cc3)c2CCN1O [Example 110] , state whether its pEC50 is greater than or equal to 8.
OUTPUT: 1

###

Test system: HIV-1 RF virus in CEM-SS cells
Assay: HIV-1 cell protection assay (XTT dye reduction)
Format: cell-based
Details: Human immunodeficiency virus 1, 144 h; RF strain of HIV-1, CEM-SS cells, XTT read-out after six days; read-out: EC50
Note to self: EC50 under 0.7 nM means Met, ties and anything higher get Not met.

Compound: Cc1c(CN2CCOCC2)c2c(ncc3c2ccn3Cc2ccc(F)cc2)c(=O)n1O [Example 44]
Measured target: HIV-1 RF virus in CEM-SS cells
Class assignment: Met

INPUT: Record O=C1c2ncc3c(c(CNCC(F)F)cn3Cc3ccc(F)cc3)c2CCN1O [Example 81] : is its EC50 strictly below 0.7 nM?
OUTPUT: Met

INPUT: Lab note: confirm whether the reported EC50 for this compound is below 0.7 nM, equality not counting. compound: CC(NCc1cn(Cc2ccc(F)cc2)c2cnc3c(=O)n(O)ccc3c12)c1ccc(Br)cc1 (centres unmarked) [Example 36]
OUTPUT: Not met

INPUT: For CC(C)COCc1cn(Cc2ccc(F)cc2)c2cnc3c(c12)CCN(O)C3=O [Example 56] , is the recorded EC50 below the cut-off of 0.7 nM?
OUTPUT: Met

INPUT: Could you please tell me whether EC50 recorded for CC(CN(C)C)NCc1cn(Cc2ccc(F)cc2)c2cnc3c(=O)n(O)ccc3c12 (centres unmarked) [Example 4] is less than 0.7 nM?
OUTPUT: Not met

INPUT: Does the reported EC50 of the following compound sit strictly below 0.7 nM? CN(CCc1cn(Cc2ccc(F)cc2)c2cnc3c(c12)CCN(O)C3=O)CC1CC1 [Example 114]
OUTPUT: Not met

INPUT: Check if EC50 falls below 0.7 nM for Cc1cc2c(ncc3c2c(CN2CCN(C)CC2)cn3Cc2ccc(F)cc2)c(=O)n1O [Example 95] .
OUTPUT: Met

###

Each entry below carries its recorded IC50.
Biological target: Full-length wild type HIV-1 integrase (SF1) (Human immunodeficiency virus type 1 group M subtype B)
Construct: made in house; host or cells: E. coli BL21 (DE3)
Assay: Integrase strand-transfer scintillation proximity assay
Type: biochemical
Could you give me the number in nM? Just the number is fine.

# annotated cases, reported IC50 shown
Structure as smiles: O=C1c2ncc3c(c(CN4CCCC4)cn3Cc3ccc(F)cc3)c2CCN1O
Readout: IC50
Measure unit: nM
Observed value: 27
//
Structure as smiles: O=C1c2ncc3c(c(CO)cn3Cc3ccc(F)cc3)c2CCN1O
Readout: IC50
Measure unit: nM
Observed value: 12
//
Structure as smiles: O=C1c2ncc3c(ccn3Cc3ccc(F)cc3)c2C=CCN1O
Readout: IC50
Measure unit: nM
Observed value: 17

INPUT: Please report the measured IC50 for Cc1c(CN2CCOCC2)c2c(ncc3c2ccn3Cc2ccc(F)cc2)c(=O)n1O
OUTPUT: 9.07

INPUT: Specify measured IC50 for Cc1cc2c(ncc3c2c(CO)cn3Cc2ccc(F)cc2)c(=O)n1O .
OUTPUT: 6

###

Quick list: EC50 per entry.
System: HIV-1 RF virus in CEM-SS cells
Assay: HIV-1 cell protection assay (XTT dye reduction)
Assay type: cell-based
Settings: Human immunodeficiency virus 1, 144 h; RF strain of HIV-1, CEM-SS cells, XTT read-out after six days; read-out: EC50
Just the number please, in nM, no unit attached.

Structure as smiles: O=C1c2ncc3c(c(COCCOCc4ccccc4)cn3Cc3ccc(F)cc3)c2CCN1O
Observed value: 0.69
//
Structure as smiles: O=c1c2ncc3c(c(COCC4CCC4)cn3Cc3ccc(F)cc3)c2ccn1O
Observed value: 14

INPUT: Complete the entry with EC50 for O=C1c2ncc3c(c(CCCO)cn3Cc3ccc(F)cc3)c2CCN1O
OUTPUT: 9

INPUT: Recall and state the measured EC50 for O=C1c2ncc3c(c(Cl)cn3Cc3ccc(F)cc3)c2CCN1O .
OUTPUT: 0.91

INPUT: Give the reported EC50 for this compound. CN(C)C(=O)c1cccc(-c2cn(Cc3ccc(F)cc3)c3cnc4c(=O)n(O)ccc4c23)c1
OUTPUT: 5

###

Target: Full-length wild type HIV-1 integrase (SF1) (Human immunodeficiency virus type 1 group M subtype B, UniProt P04585)
Construct: made in house; host or cells: E. coli BL21 (DE3)
Assay: Integrase strand-transfer scintillation proximity assay
Assay type: biochemical
Settings: strand-transfer SPA, 246 nM integrase, 50 nM host DNA, 37° C., 50 min; read-out: IC50
From the text: The annealed product represents preprocessed viral ds-DNA derived from the LTR U5 sequence of the viral genome. A ds-DNA control to test for non-specific interactions was made using a 3′ di-deoxy derivative of oligonucleotide #1 annealed to oligonucleotide #2. The CA overhang at the 5′ end of the non-biotinylated strand of the ds-DNA was created artificially by using a complimentary DNA oligonucleotide shortened by 2 base pairs. […]
Readout: IC50 (nM)
Just the number please, in nM, no unit attached.

Worked set:
Compound: O=c1c2ncc3c(c(COCCOCc4ccccc4)cn3Cc3ccc(F)cc3)c2ccn1O
IC50 (nM): 3
//
Compound: COCCN1CCN(Cc2cn(Cc3ccc(F)cc3)c3cnc4c(c23)CCN(O)C4=O)CC1
IC50 (nM): 16.2
//
Compound: CN(Cc1cn(Cc2ccc(F)cc2)c2cnc3c(c12)CCN(O)C3=O)C1CCCOC1 (centres unmarked)
IC50 (nM): 11.9
//
Compound: CN(CCc1cn(Cc2ccc(F)cc2)c2cnc3c(c12)CCN(O)C3=O)CC(F)(F)F
IC50 (nM): 15
//
Compound: CN(CCCc1cn(Cc2ccc(F)cc2)c2cnc3c(c12)CCN(O)C3=O)CC1CCOCC1
IC50 (nM): 24
//
Compound: CN(CCCc1cn(Cc2ccc(F)cc2)c2cnc3c(c12)CCN(O)C3=O)Cc1ccccn1
IC50 (nM): 26
//
Compound: Cc1cc2c(ncc3c2c(CN2CCCCC2)cn3Cc2ccc(F)cc2)c(=O)n1O
IC50 (nM): 14
//
Compound: CN(C(=O)c1cn(Cc2ccc(F)cc2)c2cnc3c(c12)CCN(O)C3=O)C1CCOCC1
IC50 (nM): 19
//
Compound: O=C1c2ncc3c(c(CN4C[C@@H](F)[C@H](F)C4)cn3Cc3ccc(F)cc3)c2CCN1O
IC50 (nM): 9
//
Compound: CCN(C)Cc1cn(Cc2ccc(F)cc2)c2cnc3c(c12)CCN(O)C3=O
IC50 (nM): 27

INPUT: Return IC50 (reported value) for this compound: O=C1c2ncc3c(c(CCNC4CCOCC4)cn3Cc3ccc(F)cc3)c2CCN1O
OUTPUT: 28

INPUT: Assign IC50 to the following record: CC(C)COCc1cn(Cc2ccc(F)cc2)c2cnc3c(c12)CCN(O)C3=O
OUTPUT: 11

INPUT: Return IC50 for the following compound: CN(C)CCc1cn(Cc2ccc(F)cc2)c2cnc3c(c12)CCN(O)C3=O
OUTPUT: 24

INPUT: Quickly give me recorded IC50 for O=C1c2ncc3c(c(COCC(O)CO)cn3Cc3ccc(F)cc3)c2CCN1O (stereo in doubt)
OUTPUT: 14

INPUT: Entry COCCN(C)CCc1cn(Cc2ccc(F)cc2)c2cnc3c(c12)CCN(O)C3=O needs its IC50 filled in; supply it.
OUTPUT: 20

INPUT: Consider the compound Cc1cc2c(ncc3c2c(CN2CCOCC2)cn3Cc2ccc(F)cc2)c(=O)n1O and give its recorded IC50.
OUTPUT: 9.36

INPUT: Determine its reported IC50: COCCN(C)Cc1cn(Cc2ccc(F)cc2)c2cnc3c(=O)n(O)c(C)cc3c12
OUTPUT: 13
